B1: INTS4 (parent)
chain: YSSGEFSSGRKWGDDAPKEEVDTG

- Variants of: B1
- METHOD SUMMARY: protein stability index of a GFP-peptide fusion (GPS, HEK-293T) (PSI 1-6); higher = more stable;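 note: lentivirally expressed fusions sorted by FACS into six bins by GFP to DsRed ratio, PSI derived from sequencing read proportions per bin multiplied by bin number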
- CONDITION DESCRIPTION: c terminus: a fixed tail appended
Reported protein stability index is given for each of the following variants.
Please reply with the number alone, leaving off any unit.

Would you please look over these solved cases?
>  <MUTANT ID>
G9T

>  <protein stability index>
2.3

$$$$
>  <MUTANT ID>
E19C

>  <protein stability index>
2.37

$$$$
>  <MUTANT ID>
P17W

>  <protein stability index>
2.9

$$$$
>  <MUTANT ID>
P17R

>  <protein stability index>
2.01

$$$$
>  <MUTANT ID>
S7M

>  <protein stability index>
2.17

$$$$
>  <MUTANT ID>
T23L

>  <protein stability index>
2.9

$$$$
>  <MUTANT ID>
S7P

>  <protein stability index>
1.67

$$$$
>  <MUTANT ID>
G13L

>  <protein stability index>
2.35

$$$$

The variant listed as E20C has a reported protein stability index of 2.5

The variant listed as E19Q has a reported protein stability index of 2.95

The variant listed as K18T has a reported protein stability index of 2.56

The variant listed as S2H has a reported protein stability index of 1.48
